Molecular target: T1, recombinant human transferrin receptor 1 (human, UniProt P02786 89-760)
T1 construct: also called hTfR1; huTfR1
T1 sequence (P02786 89-760 limits assumed): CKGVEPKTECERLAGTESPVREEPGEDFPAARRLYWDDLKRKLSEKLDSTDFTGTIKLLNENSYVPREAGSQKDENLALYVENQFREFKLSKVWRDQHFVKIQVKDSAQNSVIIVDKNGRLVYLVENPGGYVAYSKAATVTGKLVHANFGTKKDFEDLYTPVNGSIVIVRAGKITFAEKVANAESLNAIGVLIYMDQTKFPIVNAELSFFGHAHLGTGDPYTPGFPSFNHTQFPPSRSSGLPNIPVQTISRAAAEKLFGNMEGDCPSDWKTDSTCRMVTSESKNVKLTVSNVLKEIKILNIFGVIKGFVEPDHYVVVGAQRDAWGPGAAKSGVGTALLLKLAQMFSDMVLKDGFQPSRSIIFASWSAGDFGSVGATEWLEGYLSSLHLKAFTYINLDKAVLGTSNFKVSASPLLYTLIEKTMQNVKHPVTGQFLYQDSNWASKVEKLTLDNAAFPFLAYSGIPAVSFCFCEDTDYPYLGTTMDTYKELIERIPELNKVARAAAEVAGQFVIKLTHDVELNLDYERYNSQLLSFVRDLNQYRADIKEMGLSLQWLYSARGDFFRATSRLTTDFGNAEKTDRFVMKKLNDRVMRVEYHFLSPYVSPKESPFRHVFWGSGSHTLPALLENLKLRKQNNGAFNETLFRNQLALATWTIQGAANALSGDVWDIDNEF
Experiment: ELISA, thermal stability d9 (after 9 days at high temperature); printed as 'Binding affinity hTfR1 d9 (nM)'
Kindly supply the reported pEC50 values for the records listed here.
// field semantics: pEC50 = negative decimal log of concentration (mol/L)

Notebook: humanized anti-TfR Fab 3A4 (VH3-N54S/Vk4) (Fab, V domains shown, unconjugated; also called 3A4 VH3 (N54S*)/Vκ4) VH: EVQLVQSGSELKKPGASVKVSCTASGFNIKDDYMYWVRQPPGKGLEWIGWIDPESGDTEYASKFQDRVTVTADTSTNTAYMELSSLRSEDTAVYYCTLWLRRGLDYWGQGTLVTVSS VL: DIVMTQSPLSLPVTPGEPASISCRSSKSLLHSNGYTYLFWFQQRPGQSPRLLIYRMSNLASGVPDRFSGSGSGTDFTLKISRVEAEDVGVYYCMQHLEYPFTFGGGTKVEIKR , pEC50 read as 9.19

Note to self: pEC50 recorded for humanized anti-TfR Fab 3A4 (VH3/Vk4) (Fab, V domains shown, unconjugated; also called 3A4 VH3 /Vκ4) VH: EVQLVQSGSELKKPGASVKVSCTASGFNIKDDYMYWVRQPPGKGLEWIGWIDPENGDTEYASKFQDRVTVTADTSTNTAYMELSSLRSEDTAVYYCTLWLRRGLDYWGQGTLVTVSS VL: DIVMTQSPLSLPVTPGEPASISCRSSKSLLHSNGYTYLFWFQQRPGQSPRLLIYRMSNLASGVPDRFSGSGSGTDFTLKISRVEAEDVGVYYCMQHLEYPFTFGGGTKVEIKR was 9.34

Measured pEC50 of humanized anti-TfR Fab 3M12 (VH4/Vk2) (Fab, V domains shown, unconjugated; also called 3M12 VH4/Vκ2) VH: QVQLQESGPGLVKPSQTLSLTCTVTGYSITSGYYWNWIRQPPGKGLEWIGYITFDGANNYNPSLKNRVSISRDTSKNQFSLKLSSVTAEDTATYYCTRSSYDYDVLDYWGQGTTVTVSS VL: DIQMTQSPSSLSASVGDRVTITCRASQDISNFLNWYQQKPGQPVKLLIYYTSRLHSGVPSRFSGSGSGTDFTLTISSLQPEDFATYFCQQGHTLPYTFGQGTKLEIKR : 9.30

Record humanized anti-TfR Fab 3M12 (VH3/Vk2) (Fab, V domains shown, unconjugated; also called 3M12 VH3/Vκ2) VH: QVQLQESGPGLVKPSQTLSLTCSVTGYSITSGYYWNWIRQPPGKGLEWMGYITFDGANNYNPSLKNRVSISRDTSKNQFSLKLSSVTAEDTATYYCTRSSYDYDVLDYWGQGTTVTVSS VL: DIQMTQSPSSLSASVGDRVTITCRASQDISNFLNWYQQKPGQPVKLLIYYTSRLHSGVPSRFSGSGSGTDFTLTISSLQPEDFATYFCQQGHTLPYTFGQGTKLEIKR . Reported pEC50: 9.01

Value of pEC50 reported for the binder humanized anti-TfR Fab 5H12 (VH5-C33Y/Vk3) (Fab, V domains shown, unconjugated; also called 5H12 VH5 (C33Y*)/Vκ3) VH: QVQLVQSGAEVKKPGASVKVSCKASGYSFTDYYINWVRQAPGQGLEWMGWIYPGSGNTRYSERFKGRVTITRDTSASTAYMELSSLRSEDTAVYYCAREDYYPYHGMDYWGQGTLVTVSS VL: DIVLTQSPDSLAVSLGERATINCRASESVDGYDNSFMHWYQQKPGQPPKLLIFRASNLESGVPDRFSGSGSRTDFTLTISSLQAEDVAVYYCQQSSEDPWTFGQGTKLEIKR is 7.14
